Where do the numbers come from? From PubChem BioAssay (NCI).

# Test system: A498 renal
# Experimental Details: NCI tumour cell line growth inhibition, 48 h
Experimental Endpoint: log10 TGI (log10 of the value in µM)
Recorded TGI (log10, µM)

Supply log10 TGI value. Item: `CCCCCCN1CCN(Cc2ccc(N(CC)CC)cc2)C(=O)C1=O`
0.76

Supply log10 TGI value. Item: `Cc1ccc2nc(N/N=C/c3cccc(C)n3)cc(C)c2c1`
1.58

Supply log10 TGI value. Item: `COc1cc2c(cc1OC)-c1c(c3ccc([N+](=O)[O-])cc3c(=O)n1CCCN)C2=O`
1.12

Supply log10 TGI value. Item: `COc1ccc(-n2c(C)nc3c(c(C)nn3-c3ccccc3)c2=O)cc1`
-1.07

Supply log10 TGI value. Item: `CO/C(=N\N=C\c1cccc(C(F)(F)F)c1)c1ccncc1`
1.63

Supply log10 TGI value. Item: `O=C1CC/C(=C\COc2ccc3ccc(=O)oc3c2)O1`
1.64
